Reported pIC50 values for the following compounds.
Target: HCV NS3-4A serine protease (full-length NS3-4A protein) (Hepatitis C virus genotype 1a (isolate 1) (HCV), UniProt P26664)
Sequence (P26664 1027-1657): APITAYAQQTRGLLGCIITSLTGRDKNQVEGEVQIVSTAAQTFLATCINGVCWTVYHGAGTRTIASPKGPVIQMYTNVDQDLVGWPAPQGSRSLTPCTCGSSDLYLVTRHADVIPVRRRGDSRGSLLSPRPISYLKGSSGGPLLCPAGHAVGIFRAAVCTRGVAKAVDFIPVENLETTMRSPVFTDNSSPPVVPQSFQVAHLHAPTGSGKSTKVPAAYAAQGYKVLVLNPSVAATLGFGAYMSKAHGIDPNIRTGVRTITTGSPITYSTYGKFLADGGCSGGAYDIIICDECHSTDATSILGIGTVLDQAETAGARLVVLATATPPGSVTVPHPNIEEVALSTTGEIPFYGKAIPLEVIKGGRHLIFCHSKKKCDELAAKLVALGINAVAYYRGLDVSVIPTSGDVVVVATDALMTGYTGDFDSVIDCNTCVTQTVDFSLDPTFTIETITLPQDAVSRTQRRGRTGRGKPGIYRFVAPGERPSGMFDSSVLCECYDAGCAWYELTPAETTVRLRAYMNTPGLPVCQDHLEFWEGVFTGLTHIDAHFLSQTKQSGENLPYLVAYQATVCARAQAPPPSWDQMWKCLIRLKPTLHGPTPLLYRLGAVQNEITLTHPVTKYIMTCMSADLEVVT
Sequence (P26664 1658-1711 partner): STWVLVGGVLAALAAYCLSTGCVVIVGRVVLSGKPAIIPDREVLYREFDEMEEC
Experiment: HCV NS3-4A protease assay
Details: strain HCV-1, fluorogenic peptide substrate, read-out: Protease assay Ex. 12 IC50
A value of pIC50 is the negative decimal logarithm of a concentration given in moles per litre.

Some solved entries appear below for comparison.
The compound C=C[C@@H]1C[C@]1(NC(=O)[C@@H]1C[C@@]2(CN1C(=O)[C@@H](NC(=O)[C@@H](NC(=O)[C@@H]1SCCN1CC)C1CCCCC1)C(C)(C)C)C(C)(C)C21CCC1)C(=O)NS(=O)(=O)N1CCCC1 showed pIC50 equal to 8.05

Measured pIC50 of C=C[C@@H]1C[C@]1(NC(=O)[C@@H]1C[C@@]2(CN1C(=O)[C@@H](NC(=O)[C@@H](NC(=O)c1ccc3c(ccn3C)c1)C1CCCCC1)C(C)(C)C)C(C)(C)C21CCC1)C(=O)NS(=O)(=O)N1CCCC1 : 7.40

pIC50 in this record for C=C[C@@H]1C[C@]1(NC(=O)[C@@H]1C[C@@]2(CN1C(=O)[C@@H](NC(=O)OC(C)(C)C)C(C)(C)C)C(C)(C)C21CCC1)C(=O)NS(=O)(=O)N1CCCC1 : 6.40

API: the following record is the query input.
The reported pIC50 of the compound C=C[C@@H]1C[C@]1(NC(=O)[C@@H]1C[C@@]2(CN1C(=O)[C@@H](NC(=O)[C@@H](NC(=O)[C@@H]1CCCCN1C(C)C)C1CCCCC1)C(C)(C)C)C(C)(C)C21CCC1)C(=O)NS(=O)(=O)N(C)CCC was 8.85

* * *

Target: HCV NS3-4A serine protease (full-length NS3-4A protein) (Hepatitis C virus genotype 1a (isolate 1) (HCV), UniProt P26664)
Assay: HCV NS3-4A protease assay
Conditions: strain HCV-1, fluorogenic peptide substrate, read-out: Protease assay Ex. 12 IC50
// reported IC50 for each item listed
Note: state the figure and append the unit.

Completed entries (count: 3):
# compound C=C[C@@H]1C[C@]1(NC(=O)[C@@H]1C[C@@]2(CN1C(=O)[C@@H](NC(=O)[C@@H](NC(=O)c1ccc3[nH]ccc3c1)C1CCCCC1)C(C)(C)C)C(C)(C)C21CCC1)C(=O)NS(=O)(=O)N1CCCC1 ; its IC50 = 20 nM

get_value(item= C=C[C@@H]1C[C@]1(NC(=O)[C@@H]1C[C@@]2(CN1C(=O)[C@@H](NC(=O)[C@@H](NC(=O)[C@H]1CCCCN1C)C1CCCCC1)C(C)(C)C)C(C)(C)C21CCC1)C(=O)NS(=O)(=O)N1CCCC1 , readout=IC50) returns 0.9 nM

For this compound ( C=C[C@@H]1C[C@]1(NC(=O)[C@@H]1C[C@@]2(CN1C(=O)[C@@H](NC(=O)[C@@H](NC(=O)[C@@H]1CCCCN1C)C1CCCCC1)C(C)(C)C)C(C)(C)C21CCC1)C(=O)NS(=O)(=O)N(C)CC ), measured IC50 is 2 nM

More entries:
Entry C=C[C@@H]1C[C@]1(NC(=O)[C@@H]1C[C@@]2(CN1C(=O)[C@@H](NC(=O)[C@@H](NC(=O)[C@H]1CCCCN1C(C)C)C1CCCCC1)C(C)(C)C)C(C)(C)C21CCC1)C(=O)NS(=O)(=O)N(C)C(C)C , IC50 reported as 6.5 nM
